Test system: full length human vWF
Test: 3-point dot blot screen, full length human vWF
Type: binding
Conditions: 20 nM full length human vWF, ratio of fraction of aptamer bound with target protein to fraction bound without protein
Please go through the items and note down their Screen- Human/No Protein.
Answer with the value's number alone.

Would you kindly share the measured Screen- Human/No Protein for AMX237.B11: DNA SELEX 2 aptamer clone (nucleic acid, DNA, backbone and methylation of C not given here, DNA SELEX 2 aptamer clone) DNA: CTACCTACGATCTGACTAGCTCCAGTGTTTTATCTAATAACCGTGCGGTGCCTCCGTGAGCTTACTCTCATGTAGTTCC ?
2.87

Would you mind doing AMX238.E9: DNA SELEX 2 aptamer clone (nucleic acid, DNA, backbone not given here, DNA SELEX 2 aptamer clone) DNA: CTACCTACGATCTGACTAGCGTGCAGTGCCCATCTTAGGCCGTGCGGTGCCTCCGTCACGCTTACTCTCATGTAGTTCC as well?
3.44

Another molecule to look at: AMX238.F2: DNA SELEX 2 aptamer clone (nucleic acid, DNA, backbone not given here, DNA SELEX 2 aptamer clone) DNA: CTACCTACGATCTGACTAGCATGCAGTGCCCATTCTAGGCCGTGCGGTGCCTCCGTCATGCTTACTCTCATGTAGTTCC
2.84

Cool, now AMX238.F7: DNA SELEX 2 aptamer clone (nucleic acid, DNA, backbone not given here, DNA SELEX 2 aptamer clone) DNA: CTACCTACGATCTGACTAGCAAGGGGATTGGCTCCGGGTCTGGCGTGCTTGGCATCTTTGGCTTACTCTCATGTAGTTCC
1.20

Input AMX236.G1: DNA SELEX 2 aptamer clone (nucleic acid, DNA, backbone not given here, DNA SELEX 2 aptamer clone) CTACCTACGATCTGACTAGCCTCAGATTGACTCCGGCTGACTTGTTTTAATCTTCTGAGTGCTTACTCTCATGTAGTTCC
1.47

And for AMX236.C9: DNA SELEX 2 aptamer clone (nucleic acid, DNA, backbone not given here, DNA SELEX 2 aptamer clone) CTACCTACGATCTGACTAGCCAGTTCTGGGAAAAATTATTTTTTTATTTCGATCGTATTTGCTTACTCTCATGTAGTTCC ?
1.24

Moving on to AMX237.H8: DNA SELEX 2 aptamer clone (nucleic acid, DNA, backbone not given here, DNA SELEX 2 aptamer clone) DNA: CTACCTACGATCTGACTAGCTTGGTAGCGACTTTGTGGAGCTGCGGTTTGGTCGACATCAGCTTACTCTCATGTAGTTCC
1.21

Ok, now AMX238.G4: DNA SELEX 2 aptamer clone (nucleic acid, DNA, backbone not given here, DNA SELEX 2 aptamer clone) DNA: CTACCTACGATCTGACTAGCTTGTCGCACTTTTGGTTGGTCTGGTTGGTTCTAAGTGCGCTTACTCTCATGTAGTTCC
1.09
